Let's look at some molecules and their measured IC50.
biological target: recombinant full-length human GSK3β (Homo sapiens); construct: recombinant full-length human GSK3β (Upstate); purchased Upstate; experiment: Luciferase-coupled cell-free GSK3β kinase assay; type: biochemical; conditions: Table 2
Sequence (P49841 whole entry): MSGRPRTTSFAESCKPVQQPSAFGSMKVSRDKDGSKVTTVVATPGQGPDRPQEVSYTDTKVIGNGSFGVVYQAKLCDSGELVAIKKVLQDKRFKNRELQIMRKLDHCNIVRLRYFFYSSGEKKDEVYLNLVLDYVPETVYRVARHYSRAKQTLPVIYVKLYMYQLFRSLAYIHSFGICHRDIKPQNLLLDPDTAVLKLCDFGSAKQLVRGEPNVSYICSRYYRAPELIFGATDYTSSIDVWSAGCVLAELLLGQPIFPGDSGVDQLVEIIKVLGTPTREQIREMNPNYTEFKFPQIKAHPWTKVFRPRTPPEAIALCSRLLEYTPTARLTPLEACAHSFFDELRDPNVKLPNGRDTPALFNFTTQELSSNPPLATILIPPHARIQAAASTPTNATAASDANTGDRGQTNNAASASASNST

As a guide, the following entries are already answered.
C[C@H]1COc2c(NCCNc3ccccn3)c(F)c(N)c3c(=O)c(C(=O)O)cn1c23 [compound 18]
< 100 nM
Cc1cc(OCCNc2c(F)c(N)c3c(=O)c(C(=O)O)cn4c3c2OC[C@@H]4C)ccc1Cl [compound 84]
< 100 nM
COc1ccc(OCCNc2c(F)c(N)c3c(=O)c(C(=O)O)cn4c3c2OC[C@@H]4C)cc1 [Compound 87]
100 to 500 nM

Okay, next one:
Query: Given C[C@H]1COc2c(NCCNc3ccccn3)c(F)c(N)c3c(=O)c(C(N)=O)cn1c23 [Example 109] , state its recorded IC50.
Response: < 100 nM

###

biological target: recombinant full-length human GSK3β (Homo sapiens); construct: recombinant full-length human GSK3β (Upstate); purchased Upstate; test: Luciferase-coupled cell-free GSK3β kinase assay; assay type: biochemical; conditions: Table 2
measured-quantity: IC50

// solved cases for IC50 follow
C[C@H]1COc2c(NCCCc3ccccc3)c(F)c(N)c3c(=O)c(C#N)cn1c23 [Example 108]
< 100 nM
C[C@H]1COc2c(NCCCn3ccnc3)c(F)c(N)c3c(=O)c(C(N)=O)cn1c23 [Example 107]
100 to 500 nM
CC1(C)COc2c(NCCNc3cccc(F)n3)c(F)c(N)c3c(=O)c(C(=O)O)cn1c23 [compound 35]
< 100 nM
CC(CCc1ccccc1Cl)Nc1c(F)c(N)c2c(=O)c(C(=O)O)cn3c2c1OC[C@@H]3C (some centres unmarked) [compound 88]
100 to 500 nM
Nc1c(F)c(NCCCn2ccnc2)c2c3c1c(=O)c(C(=O)O)cn3CCCO2 [compound 53]
100 to 500 nM
CC1COc2c(NCCCn3cnc4ccccc43)c(F)c(N)c3c(=O)ccn1c23 (centres unmarked) [compound 47]
100 to 500 nM
Nc1c(F)c(NCCNc2ccccn2)c2c3c1c(=O)c(C(=O)O)cn3CCCO2 [compound 11]
> 1000 nM

Now consider the entry below.
Query: Given CC(COc1ccc(Cl)cc1)Nc1c(F)c(N)c2c(=O)c(C(=O)O)cn3c2c1OC[C@@H]3C (some centres unmarked) [compound 74] , state its recorded IC50.
Response: 500 to 1000 nM

###

The following compounds are listed with their measured MIC values.
tested on: S. aureus Smith; experiment: Antibacterial activity (MIC), S. aureus; assay type: cell-based; conditions: Staphylococcus aureus, Table 1; read-out: Antibacterial MIC (μM) S. aureus Smith

Some entries whose results are on file:
COc1c(NCCc2ccncc2)c(F)c(N)c2c(=O)c(C(=O)O)cn(C3CCCC3)c12 [compound 80]
10 to 50 µM
COc1c(NCCCOc2ccccc2)c(F)c(N)c2c(=O)c(C(=O)O)cn(C3CC3)c12 [compound 82]
10 to 50 µM
Nc1c(F)c(NCCc2ccccc2)c(F)c2c1c(=O)c(C(=O)O)cn2C1CC1 [compound 1]
< 0.5 µM
Nc1c(F)c(NCCNc2cccc3ccccc23)c(F)c2c1c(=O)c(C(=O)O)cn2C1CCCC1 [compound 56]
10 to 50 µM
COc1c(NCCNc2ccccn2)c(F)c(N)c2c(=O)c(C(=O)O)cn(C3CC3)c12 [compound 71]
0.5 to 10 µM

Query: Sample Nc1cc(NCCNc2cccc3ccccc23)cc2c1c(=O)ccn2C1CC1 [compound 66] — what was its MIC?
Response: 10 to 50 µM

Query: Param item = Nc1c(F)c(NCCCc2ccccc2)c(F)c2c1c(=O)ccn2CCc1ccccc1 [compound 58] ; retrieve measured MIC.
Response: 10 to 50 µM

Query: Requested read-out: MIC. Entry: Nc1c(F)c(NCCNc2cccc3ccccc23)c(F)c2c1c(=O)c(C(=O)O)cn2CCc1ccccc1 [compound 51]
Response: 10 to 50 µM
